# Assayed target: Integrin alpha-IIb/beta-3 (Homo sapiens, UniProt P05106+P08514)
# Sequence (P05106 27-788 limits assumed): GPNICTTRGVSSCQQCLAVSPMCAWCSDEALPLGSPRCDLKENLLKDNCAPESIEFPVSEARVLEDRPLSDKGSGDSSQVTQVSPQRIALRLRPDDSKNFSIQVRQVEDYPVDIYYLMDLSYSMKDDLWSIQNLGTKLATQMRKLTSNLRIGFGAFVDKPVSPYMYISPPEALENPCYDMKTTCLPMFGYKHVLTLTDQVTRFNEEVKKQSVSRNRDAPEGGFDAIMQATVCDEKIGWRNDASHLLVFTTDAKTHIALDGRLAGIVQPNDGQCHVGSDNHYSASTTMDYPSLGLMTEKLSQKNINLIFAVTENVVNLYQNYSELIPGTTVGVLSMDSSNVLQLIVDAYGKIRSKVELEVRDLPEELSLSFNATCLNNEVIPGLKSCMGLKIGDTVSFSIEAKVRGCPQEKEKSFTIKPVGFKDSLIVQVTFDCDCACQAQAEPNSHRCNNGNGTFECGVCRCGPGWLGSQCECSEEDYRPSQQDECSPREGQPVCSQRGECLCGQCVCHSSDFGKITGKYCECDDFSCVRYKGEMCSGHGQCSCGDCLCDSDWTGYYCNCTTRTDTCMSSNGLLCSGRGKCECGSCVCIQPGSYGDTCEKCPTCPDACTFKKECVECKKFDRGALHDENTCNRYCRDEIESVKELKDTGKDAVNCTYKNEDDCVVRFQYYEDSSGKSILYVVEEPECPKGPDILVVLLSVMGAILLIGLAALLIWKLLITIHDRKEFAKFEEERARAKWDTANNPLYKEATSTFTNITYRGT
# Sequence (P08514 32-887 limits assumed): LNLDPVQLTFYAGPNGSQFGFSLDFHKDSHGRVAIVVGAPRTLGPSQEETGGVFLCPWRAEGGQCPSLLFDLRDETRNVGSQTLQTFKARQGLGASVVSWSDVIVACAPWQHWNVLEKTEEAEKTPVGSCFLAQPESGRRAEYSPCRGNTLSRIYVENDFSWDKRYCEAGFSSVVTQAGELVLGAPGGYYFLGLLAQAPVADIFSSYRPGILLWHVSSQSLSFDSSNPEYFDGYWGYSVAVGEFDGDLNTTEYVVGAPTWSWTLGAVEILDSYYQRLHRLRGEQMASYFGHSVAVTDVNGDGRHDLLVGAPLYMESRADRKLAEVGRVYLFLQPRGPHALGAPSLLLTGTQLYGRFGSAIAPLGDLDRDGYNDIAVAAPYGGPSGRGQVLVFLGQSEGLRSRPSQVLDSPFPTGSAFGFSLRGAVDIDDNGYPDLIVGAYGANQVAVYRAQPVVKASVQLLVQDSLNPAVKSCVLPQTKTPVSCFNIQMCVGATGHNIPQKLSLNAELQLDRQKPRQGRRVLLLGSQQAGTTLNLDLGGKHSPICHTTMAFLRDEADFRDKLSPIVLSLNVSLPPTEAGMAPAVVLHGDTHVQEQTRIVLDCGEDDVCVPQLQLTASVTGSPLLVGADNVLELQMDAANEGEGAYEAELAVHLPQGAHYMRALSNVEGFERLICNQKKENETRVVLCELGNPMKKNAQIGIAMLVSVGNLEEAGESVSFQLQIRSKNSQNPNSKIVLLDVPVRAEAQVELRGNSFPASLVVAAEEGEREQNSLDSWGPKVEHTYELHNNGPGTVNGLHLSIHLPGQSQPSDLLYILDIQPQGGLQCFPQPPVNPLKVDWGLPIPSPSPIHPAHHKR
# Sequence (P08514 891-1039 limits assumed): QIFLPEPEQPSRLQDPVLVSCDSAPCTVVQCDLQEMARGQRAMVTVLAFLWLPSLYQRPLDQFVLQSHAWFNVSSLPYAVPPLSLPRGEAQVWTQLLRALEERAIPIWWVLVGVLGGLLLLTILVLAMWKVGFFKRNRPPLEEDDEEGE
# Protocol description: Concentration required to reduce binding of fibrinogen to purified Fibrinogen Receptor by 50% using ELISA
Please assign class 0 whenever IC50 is at or above 10 µM, and class 1 whenever it is below.

Structure notation | Discrete label
O=C(O)CN1CCc2cc(OCCC3CCNCC3)ccc2C1=O | class 0
O=C(O)CN1CCc2cc(OCCCCC3CCNCC3)ccc2C1=O | class 1
N=C(N)NCc1ccc(COc2ccc3c(c2)CCN(CC(=O)O)C3=O)cc1 | class 1
N=C(N)NCCCCOc1ccc2c(c1)C(=O)N(CC(=O)O)CC2 | class 0
N=C(N)c1ccc(C(=O)Nc2ccc3c(c2)CCN(CC(=O)O)C3=O)cc1 | class 1
N=C(N)NCc1cccc(COc2ccc3c(c2)CCN(CC(=O)O)C3=O)c1 | class 0
N=C(N)c1ccc(/C=C\c2ccc3c(c2)CCN(CC(=O)O)C3=O)cc1 | class 1
NCCCCCCOc1ccc2c(c1)CCN(CC(=O)O)C2=O | class 0
O=C(O)CN1CCc2cc(OCCCC3CCNCC3)ccc2C1=O | class 1
NCc1ccc(COc2ccc3c(c2)CCN(CC(=O)O)C3=O)cc1 | class 0

----------
# Organism: Homo sapiens
# Protocol description: Ability to block Glycoprotein IIb-IIIa was measured by inhibiting ADP induced human platelet aggregation (5 uM)
# Type: functional
# note: exactly 1000 nM is not below, so it is condition not met; use condition met for IC50 strictly under it

Structure notation | Discrete label
N=C(N)c1ccc(CCc2ccc3c(c2)CCN(CC(=O)O)C3=O)cc1 | condition not met
N=C(N)c1ccc(C(=O)Nc2ccc3c(c2)CCN(CC(=O)O)C3=O)cc1 | condition met
N=C(N)c1ccc(COc2ccc3c(c2)CCN(CC(=O)O)C3=O)cc1 | condition not met
O=C(O)CN1CCc2cc(OCCCCC3CCNCC3)ccc2C1=O | condition not met
N=C(N)c1ccc(/C=C\c2ccc3c(c2)CCN(CC(=O)O)C3=O)cc1 | condition not met
N=C(N)c1ccc(/C=C/c2ccc3c(c2)CCN(CC(=O)O)C3=O)cc1 | condition met
N=C(N)c1ccc(C#Cc2ccc3c(c2)CCN(CC(=O)O)C3=O)cc1 | condition met
N=C(N)c1ccc(NC(=O)c2ccc3c(c2)CCN(CC(=O)O)C3=O)cc1 | condition met

----------
# Lookup of reported pIC50 keyed by entry
# Assayed target: Integrin alpha-IIb/beta-3 (Homo sapiens, UniProt P05106+P08514)
# Protocol description: Concentration required to reduce binding of fibrinogen to purified Fibrinogen Receptor by 50% using ELISA
pIC50: −log10 of the molar value.

Structure notation | Modifier | pIC50
N=C(N)c1ccc(NC(=O)c2ccc3c(c2)CCN(CC(=O)O)C3=O)cc1 | = | 7.12
NCCCCCOc1ccc2c(c1)CCN(CC(=O)O)C2=O | = | 4.55
NCCCCOc1ccc2c(c1)CCN(CC(=O)O)C2=O | = | 4.74
N=C(N)NCCCOc1ccc2c(c1)C(=O)N(CC(=O)O)CC2 | > | 4.00
NCc1cccc(COc2ccc3c(c2)CCN(CC(=O)O)C3=O)c1 | = | 4.11
N=C(N)c1ccc(CCOc2ccc3c(c2)CCN(CC(=O)O)C3=O)cc1 | = | 5.22
N=C(N)NCCCOc1ccc2c(c1)CCN(CC(=O)O)C2=O | = | 4.36
N=C(N)c1ccc(COc2ccc3c(c2)C(=O)N(CC(=O)O)CC3)cc1 | = | 5.40
N=C(N)NCCCCCCOc1ccc2c(c1)CCN(CC(=O)O)C2=O | = | 4.92
O=C(O)CN1CCc2cc(OCC3CCNCC3)ccc2C1=O | = | 4.26
NCCCOc1ccc2c(c1)CCN(CC(=O)O)C2=O | = | 4.32
N=C(N)c1ccc(/C=C/c2ccc3c(c2)CCN(CC(=O)O)C3=O)cc1 | = | 7.32
N=C(N)c1ccc(C#Cc2ccc3c(c2)CCN(CC(=O)O)C3=O)cc1 | = | 7.48
